Experiment: Pharmacokinetic (PK) analysis of rat plasma
Format: in vivo
Conditions: Sprague-Dawley, po, 20 mg/kg, SD rats, single gavage, 20 mg/10 mL/kg
ASSAY_ENDPOINT: Cmax (µg/mL)
Output spec: scalar in µg/mL, unitless text.

| MOLECULE | ASSAY_ENDPOINT | RESULT_UNIT | MEASURED_NUMBER |
| --- | --- | --- | --- |
| NS(=O)(=O)NCCNc1nonc1C(=NO)Nc1ccc(F)c(Br)c1 [INCB-24360, Epacadostat, reference compound] | Cmax | µg/mL | 0.306 |
| NC(=O)C(=O)NCCNc1nonc1/C(=N/O)Nc1ccc(F)c(Br)c1 | Cmax | µg/mL | 3.68 |
| C[S@](=O)(CCNc1nonc1/C(=N/O)Nc1ccc(F)c(Br)c1)=NS(=O)(=O)C1CC1 | Cmax | µg/mL | 2.02 |
| CS(=O)(=O)N=S(C)(=O)CCNc1nonc1/C(=N/O)Nc1ccc(F)c(Br)c1 (stereo not drawn) | Cmax | µg/mL | 1.05 |
| C[S@@](=O)(CCNc1nonc1/C(=N/O)Nc1ccc(F)c(Br)c1)=NS(=O)(=O)C1CC1 | Cmax | µg/mL | 2.77 |

// switching to the query molecule
Which Cmax value belongs to CS(=O)(CCNc1nonc1/C(=N/O)Nc1ccc(F)c(Br)c1)=NS(=O)(=O)C1CC1 (stereo not drawn) ? 1.35

====

Entries and their pIC50
Target: Human indoleamine 2,3-dioxygenase (IDO) (Homo sapiens)
Sequence (P14902 whole entry): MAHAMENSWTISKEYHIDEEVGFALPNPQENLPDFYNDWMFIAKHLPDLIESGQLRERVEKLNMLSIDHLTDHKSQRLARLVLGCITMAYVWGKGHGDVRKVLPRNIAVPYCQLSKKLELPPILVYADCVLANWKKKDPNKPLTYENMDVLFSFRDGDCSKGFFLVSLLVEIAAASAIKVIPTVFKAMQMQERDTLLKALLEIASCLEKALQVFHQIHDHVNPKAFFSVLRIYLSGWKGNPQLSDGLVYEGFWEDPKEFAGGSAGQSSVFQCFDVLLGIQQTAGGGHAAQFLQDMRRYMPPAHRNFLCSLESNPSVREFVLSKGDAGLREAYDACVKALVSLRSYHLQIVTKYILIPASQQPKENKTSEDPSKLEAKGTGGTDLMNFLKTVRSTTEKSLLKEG
Expect pIC50 as a plain number equal to -log10 of the molar concentration.

Use the examples below as a reference point.
| MOLECULE | pIC50 |
| --- | --- |
| Cc1ccc(S(=O)(=O)N=S(C)(=O)NCCNc2nonc2C(=NO)Nc2ccc(F)c(Br)c2)cc1 (stereo not shown) | 7.19 |
| CCNC(=O)C(=O)NCCNc1nonc1/C(=N/O)Nc1ccc(F)c(Br)c1 | 7.25 |
| CS(=O)(=O)N=S(C)(=O)CCNc1nonc1/C(=N/O)Nc1ccc(F)c(Br)c1 (stereo not shown) | 7.42 |

Which pIC50 value belongs to CNC(=O)C(=O)NCCNc1nonc1/C(=N/O)Nc1ccc(F)c(Br)c1 ? 7.15

====

Assay: Pharmacokinetic (PK) analysis of rat plasma
Assay type: in vivo
Settings: Sprague-Dawley, po, 20 mg/kg, SD rats, single gavage, 20 mg/10 mL/kg
ASSAY_ENDPOINT: half-life
State the result as a value with its unit after it.

| COMPOUND | half-life |
| --- | --- |
| CS(=O)(=O)N=S(C)(=O)CCNc1nonc1/C(=N/O)Nc1ccc(F)c(Br)c1 (stereo not drawn) | 5.5 h |

Which half-life value belongs to NS(=O)(=O)NCCNc1nonc1C(=NO)Nc1ccc(F)c(Br)c1 [INCB-24360, Epacadostat, reference compound] ? 3.5 h

Next up: C[S@](=O)(CCNc1nonc1/C(=N/O)Nc1ccc(F)c(Br)c1)=NS(=O)(=O)C1CC1 1.4 h

FYI, the data here is from patent US20190040025A1.
